# Experimental Target: DNA polymerase beta (Mus musculus)
# Assay Protocol: The logarithm of the reciprocal of the concentration which produces 50% inhibition of mammalian beta DNA polymerase.
Measurement Type: Log 1/C

COC1/C=C/OC2(C)Oc3c(C)c(O)c4c(O)c(c(/C=N/Nc5ccc([N+](=O)[O-])cc5[N+](=O)[O-])cc4c3C2=O)NC(=O)/C(C)=C\C=C\C(C)C(O)C(C)C(O)C(C)C(OC(C)=O)C1C (stereo not given) ... 4.3
COC1/C=C/OC2(C)Oc3c(C)c(O)c4c(O)c(c(/C=N/N5CCCCCCCCCC5)cc4c3C2=O)NC(=O)/C(C)=C\C=C\C(C)C(O)C(C)C(O)C(C)C(OC(C)=O)C1C (stereo not given) ... 4.65
COC1/C=C/OC2(C)Oc3c(C)c(O)c4c(O)c(c(/C=N/N5C(C)CN(Cc6ccc(C#N)cc6)CC5C)cc4c3C2=O)NC(=O)/C(C)=C\C=C\C(C)C(O)C(C)C(O)C(C)C(OC(C)=O)C1C (stereo not given) ... 4.66
CCN(CC)Cc1cc2c3c4c(C)c(O)c2c(O)c1NC(=O)/C(C)=C\C=C\C(C)C(O)C(C)C(O)C(C)C(OC(C)=O)C(C)C(OC)/C=C/OC(C)(O4)C3=O (stereo not given) ... 3
COC1/C=C/OC2(C)Oc3c(C)c(O)c4c(O)c(c(/C=N/N5CCCC5)cc4c3C2=O)NC(=O)/C(C)=C\C=C\C(C)C(O)C(C)C(O)C(C)C(OC(C)=O)C1C (stereo not given) ... 3.62

###

# Experimental Target: DNA polymerase beta (Mus musculus, UniProt Q8K409)
# Assay Protocol: Ability to inhibit mouse beta DNA polymerase
# Reported Conditions: read-out: IC50
pIC50: −log10 of the molar value.
Measurement Type: pIC50

COC1/C=C/OC2(C)Oc3c(C)c(O)c4c(O)c(c(/C=N/N5C(C)CN(Cc6ccc(C#N)cc6)CC5C)cc4c3C2=O)NC(=O)/C(C)=C\C=C\C(C)C(O)C(C)C(O)C(C)C(OC(C)=O)C1C (stereo not given) ... 4.66
COC1/C=C/OC2(C)Oc3c(C)c(O)c4c(O)c(c(/C=N/OCCCc5ccccc5)cc4c3C2=O)NC(=O)/C(C)=C\C=C\C(C)C(O)C(C)C(O)C(C)C(OC(C)=O)C1C (stereo not given) ... 5.18
CCCCCCCCO/N=C/c1cc2c3c4c(C)c(O)c2c(O)c1NC(=O)/C(C)=C\C=C\C(C)C(O)C(C)C(O)C(C)C(OC(C)=O)C(C)C(OC)/C=C/OC(C)(O4)C3=O (stereo not given) ... 4.89
COC1/C=C/OC2(C)Oc3c(C)c(O)c4c(O)c(c(/C=N/N5CCCCCCCCCC5)cc4c3C2=O)NC(=O)/C(C)=C\C=C\C(C)C(O)C(C)C(O)C(C)C(OC(C)=O)C1C (stereo not given) ... 4.66
CCCCCCCCN(CCCCCCCC)/N=C/c1cc2c3c4c(C)c(O)c2c(O)c1NC(=O)/C(C)=C\C=C\C(C)C(O)C(C)C(O)C(C)C(OC(C)=O)C(C)C(OC)/C=C/OC(C)(O4)C3=O (stereo in doubt; 8) ... 5.13

[P] CCCN(CCC)/N=C/c1cc2c3c4c(C)c(O)c2c(O)c1NC(=O)/C(C)=C\C=C\C(C)C(O)C(C)C(O)C(C)C(OC(C)=O)C(C)C(OC)/C=C/OC(C)(O4)C3=O (stereo not given)
[Q] COC1/C=C/OC2(C)Oc3c(C)c(O)c4c(O)c(c(/C=N/N5CCCCCCCCCCCC5)cc4c3C2=O)NC(=O)/C(C)=C\C=C\C(C)C(O)C(C)C(O)C(C)C(OC(C)=O)C1C (stereo in doubt; 17)
Higher pIC50 between P and Q ? Lab note: record the label of whichever item you select.
Q
(Q: 4.72, P: 4.35)

###

# Experimental Target: Gag-Pol polyprotein (Woolly monkey sarcoma virus) (UniProt P03359)
# Sequence (P03359 whole entry): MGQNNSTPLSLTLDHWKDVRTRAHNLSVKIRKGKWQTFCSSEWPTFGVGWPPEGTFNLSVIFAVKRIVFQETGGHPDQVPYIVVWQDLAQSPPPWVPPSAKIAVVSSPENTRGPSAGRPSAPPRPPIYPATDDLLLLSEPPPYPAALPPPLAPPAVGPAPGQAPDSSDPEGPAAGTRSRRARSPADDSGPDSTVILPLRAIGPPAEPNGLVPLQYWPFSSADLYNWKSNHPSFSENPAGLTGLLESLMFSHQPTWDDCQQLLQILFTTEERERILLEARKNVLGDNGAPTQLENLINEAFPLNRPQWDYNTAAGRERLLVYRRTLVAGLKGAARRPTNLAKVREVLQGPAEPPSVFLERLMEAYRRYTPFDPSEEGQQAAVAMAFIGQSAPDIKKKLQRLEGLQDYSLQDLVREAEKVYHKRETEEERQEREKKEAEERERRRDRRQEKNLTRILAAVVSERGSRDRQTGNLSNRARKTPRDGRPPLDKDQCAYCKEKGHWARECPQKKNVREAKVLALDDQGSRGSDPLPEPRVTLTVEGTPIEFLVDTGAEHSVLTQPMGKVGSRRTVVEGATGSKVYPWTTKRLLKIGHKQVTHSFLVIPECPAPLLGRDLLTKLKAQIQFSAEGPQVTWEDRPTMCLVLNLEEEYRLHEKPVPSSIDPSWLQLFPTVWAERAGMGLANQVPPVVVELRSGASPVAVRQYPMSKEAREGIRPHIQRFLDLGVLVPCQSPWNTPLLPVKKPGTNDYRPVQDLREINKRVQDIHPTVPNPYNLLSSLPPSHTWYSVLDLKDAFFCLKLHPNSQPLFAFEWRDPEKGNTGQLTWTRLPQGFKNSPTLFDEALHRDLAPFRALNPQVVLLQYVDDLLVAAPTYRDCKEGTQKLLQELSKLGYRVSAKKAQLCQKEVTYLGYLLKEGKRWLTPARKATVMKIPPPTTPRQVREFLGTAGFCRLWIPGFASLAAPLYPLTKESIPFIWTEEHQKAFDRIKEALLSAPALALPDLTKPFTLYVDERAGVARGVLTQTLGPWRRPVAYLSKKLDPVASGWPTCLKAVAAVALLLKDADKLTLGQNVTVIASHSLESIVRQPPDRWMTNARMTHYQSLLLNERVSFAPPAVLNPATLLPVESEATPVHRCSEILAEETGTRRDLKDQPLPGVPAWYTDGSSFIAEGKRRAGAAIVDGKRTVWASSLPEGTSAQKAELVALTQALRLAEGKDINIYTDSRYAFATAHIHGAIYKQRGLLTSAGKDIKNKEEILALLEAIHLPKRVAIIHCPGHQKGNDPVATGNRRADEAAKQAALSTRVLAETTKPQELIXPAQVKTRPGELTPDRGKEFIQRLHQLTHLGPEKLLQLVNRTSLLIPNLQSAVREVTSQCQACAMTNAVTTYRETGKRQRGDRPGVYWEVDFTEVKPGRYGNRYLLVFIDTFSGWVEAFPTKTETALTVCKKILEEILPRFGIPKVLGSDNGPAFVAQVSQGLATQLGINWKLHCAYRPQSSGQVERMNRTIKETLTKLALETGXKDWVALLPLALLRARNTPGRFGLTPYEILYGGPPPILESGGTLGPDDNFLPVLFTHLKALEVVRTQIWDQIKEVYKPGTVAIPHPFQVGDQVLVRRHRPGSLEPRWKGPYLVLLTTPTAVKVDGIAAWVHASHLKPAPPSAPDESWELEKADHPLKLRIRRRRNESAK
# Assay Protocol: Inhibition of simian sarcoma virus reverse transcriptase
Measurement Type: Log 1/C

COC1/C=C/OC2(C)Oc3c(C)c(O)c4c(O)c(c(/C=N/N5C(C)CN(Cc6ccccc6)CC5C)cc4c3C2=O)NC(=O)/C(C)=C\C=C\C(C)C(O)C(C)C(O)C(C)C(OC(C)=O)C1C (stereo not given) ... 4.9
COC1/C=C/OC2(C)Oc3c(C)c(O)c4c(O)c(c(/C=N/Nc5ccc([N+](=O)[O-])cc5[N+](=O)[O-])cc4c3C2=O)NC(=O)/C(C)=C\C=C\C(C)C(O)C(C)C(O)C(C)C(OC(C)=O)C1C (stereo not given) ... 5.26
COC1/C=C/OC2(C)Oc3c(C)c(O)c4c(O)c(c(/C=N/N5CCCC5)cc4c3C2=O)NC(=O)/C(C)=C\C=C\C(C)C(O)C(C)C(O)C(C)C(OC(C)=O)C1C (stereo not given) ... 4.77
COC1/C=C/OC2(C)Oc3c(C)c(O)c4c(O)c(c(/C=N/OC(c5ccccc5)c5ccccc5)cc4c3C2=O)NC(=O)/C(C)=C\C=C\C(C)C(O)C(C)C(O)C(C)C(OC(C)=O)C1C (stereo not given) ... 5.6
COC1/C=C/OC2(C)Oc3c(C)c(O)c4c(O)c(c(/C=N/NC5CCCCCCCCCCCCCC5)cc4c3C2=O)NC(=O)/C(C)=C\C=C\C(C)C(O)C(C)C(O)C(C)C(OC(C)=O)C1C (stereo not given) ... 6.07

###

# Experimental Target: DNA polymerase beta (Mus musculus) (UniProt Q8K409)
# Assay Protocol: The logarithm of the reciprocal of the concentration which produces 50% inhibition of mammalian beta DNA polymerase.
Measurement Type: Log 1/C

CCCN(CCC)/N=C/c1cc2c3c4c(C)c(O)c2c(O)c1NC(=O)/C(C)=C\C=C\C(C)C(O)C(C)C(O)C(C)C(OC(C)=O)C(C)C(OC)/C=C/OC(C)(O4)C3=O (centres undefined) ... 4.35
COC1/C=C/OC2(C)Oc3c(C)c(O)c4c(O)c(c(/C=N/NC5CCCCCCCCCCCCCC5)cc4c3C2=O)NC(=O)/C(C)=C\C=C\C(C)C(O)C(C)C(O)C(C)C(OC(C)=O)C1C (centres undefined) ... 4.82
COC1/C=C/OC2(C)Oc3c(C)c(O)c4c(O)c(c(/C=N/N5CCCCCCCCCCCCCCC5)cc4c3C2=O)NC(=O)/C(C)=C\C=C\C(C)C(O)C(C)C(O)C(C)C(OC(C)=O)C1C (stereo in doubt; 18) ... 4.66
COC1/C=C/OC2(C)Oc3c(C)c(O)c4c(O)c(c(/C=N/OC(c5ccccc5)c5ccccc5)cc4c3C2=O)NC(=O)/C(C)=C\C=C\C(C)C(O)C(C)C(O)C(C)C(OC(C)=O)C1C (centres undefined) ... 5

###

# Experimental Target: Gag-Pol polyprotein (Woolly monkey sarcoma virus, UniProt P03359)
# Sequence (P03359 642-1310 limits assumed): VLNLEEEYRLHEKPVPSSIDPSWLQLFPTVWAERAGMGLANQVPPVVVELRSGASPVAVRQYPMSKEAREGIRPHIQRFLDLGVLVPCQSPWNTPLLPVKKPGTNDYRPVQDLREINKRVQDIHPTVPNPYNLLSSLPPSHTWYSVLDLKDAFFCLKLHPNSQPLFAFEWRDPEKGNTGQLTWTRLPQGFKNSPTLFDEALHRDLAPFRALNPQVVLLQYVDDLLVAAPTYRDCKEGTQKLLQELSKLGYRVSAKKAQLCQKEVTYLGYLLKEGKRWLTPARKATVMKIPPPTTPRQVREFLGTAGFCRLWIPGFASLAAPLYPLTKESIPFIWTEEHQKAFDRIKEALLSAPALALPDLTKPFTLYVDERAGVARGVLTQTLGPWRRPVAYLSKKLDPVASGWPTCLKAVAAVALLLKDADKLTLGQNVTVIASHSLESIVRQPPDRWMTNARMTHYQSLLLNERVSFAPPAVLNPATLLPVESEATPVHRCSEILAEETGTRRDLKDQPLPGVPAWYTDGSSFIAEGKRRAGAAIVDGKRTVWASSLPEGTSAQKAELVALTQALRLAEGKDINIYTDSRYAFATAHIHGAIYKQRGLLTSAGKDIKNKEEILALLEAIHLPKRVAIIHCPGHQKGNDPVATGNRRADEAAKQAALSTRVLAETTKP
# Assay Protocol: Ability to inhibit simian sarcoma virus reverse transcriptase
# Reported Conditions: read-out: IC50
Measurement Type: IC50 (µM)

Worked cases, IC50 given:
COC1/C=C/OC2(C)Oc3c(C)c(O)c4c(O)c(c(/C=N/N5CCN(C)CC5)cc4c3C2=O)NC(=O)/C(C)=C\C=C\C(C)C(O)C(C)C(O)C(C)C(OC(C)=O)C1C (centres undefined) ... 42
COC1/C=C/OC2(C)Oc3c(C)c(O)c4c(O)c(c(/C=N/N5CCN(N)CC5)cc4c3C2=O)NC(=O)/C(C)=C\C=C\C(C)C(O)C(C)C(O)C(C)C(OC(C)=O)C1C (centres undefined) ... 25
COC1/C=C/OC2(C)Oc3c(C)c(O)c4c(O)c(c(/C=N/N5CCCC5)cc4c3C2=O)NC(=O)/C(C)=C\C=C\C(C)C(O)C(C)C(O)C(C)C(OC(C)=O)C1C (centres undefined) ... 17
COC1/C=C/OC2(C)Oc3c(C)c(O)c4c(O)c(c(/C=N/Nc5ccc([N+](=O)[O-])cc5[N+](=O)[O-])cc4c3C2=O)NC(=O)/C(C)=C\C=C\C(C)C(O)C(C)C(O)C(C)C(OC(C)=O)C1C (centres undefined) ... 5.4

[P] COC1/C=C/OC2(C)Oc3c(C)c(O)c4c(O)c(c(/C=N/N5C(C)CN(Cc6ccc(C#N)cc6)CC5C)cc4c3C2=O)NC(=O)/C(C)=C\C=C\C(C)C(O)C(C)C(O)C(C)C(OC(C)=O)C1C (centres undefined)
[Q] COC1/C=C/OC2(C)Oc3c(C)c(O)c4c(O)c(c(/C=N/OC(c5ccccc5)c5ccccc5)cc4c3C2=O)NC(=O)/C(C)=C\C=C\C(C)C(O)C(C)C(O)C(C)C(OC(C)=O)C1C (centres undefined)
Compare IC50: is it lower for P or for Q ? Lab note: record the label of whichever item you select.
Q

###

# Experimental Target: DNA polymerase beta (Mus musculus)
# Assay Protocol: Ability to inhibit mouse beta DNA polymerase
# Reported Conditions: read-out: IC50
Measurement Type: IC50 (µM)

COC1/C=C/OC2(C)Oc3c(C)c(O)c4c(O)c(c(/C=N/N5C(C)CN(Cc6ccccc6)CC5C)cc4c3C2=O)NC(=O)/C(C)=C\C=C\C(C)C(O)C(C)C(O)C(C)C(OC(C)=O)C1C (stereo not drawn) ... 21

[P] COC1/C=C/OC2(C)Oc3c(C)c(O)c4c(O)c(c(/C=N/Nc5ccc([N+](=O)[O-])cc5[N+](=O)[O-])cc4c3C2=O)NC(=O)/C(C)=C\C=C\C(C)C(O)C(C)C(O)C(C)C(OC(C)=O)C1C (stereo not drawn)
[Q] COC1/C=C/OC2(C)Oc3c(C)c(O)c4c(O)c(c(/C=N/OC(c5ccccc5)c5ccccc5)cc4c3C2=O)NC(=O)/C(C)=C\C=C\C(C)C(O)C(C)C(O)C(C)C(OC(C)=O)C1C (stereo not drawn)
Higher IC50 between P and Q ? Lab note: record the label of whichever item you select.
P
